- PROCEDURE_DETAILS: Concentration of meloxicam in plasma of dogs after single subcutaneous silica hydrogel depot
- Type: in vivo
- CONDITION_DETAILS: dog, sc, 3.16 mg meloxicam/kg bodyweight, Dog 2, 504.0 hours, single s.c. silica hydrogel depot
REPORTED_ENDPOINT: concentration at 504 h (ng/mL)
Numeric answer only, unit ng/mL assumed.

Query: Quote concentration at 504 h reported for `Cc1cnc(NC(=O)C2=C(O)c3ccccc3S(=O)(=O)N2C)s1` please.
Reply: 115

---

- PROCEDURE_DETAILS: Concentration of meloxicam in plasma of dogs after single subcutaneous silica hydrogel depot
- Format: in vivo
- CONDITION_DETAILS: dog, sc, 3.16 mg meloxicam/kg bodyweight, Dog 3, 504.0 hours, single s.c. silica hydrogel depot
REPORTED_ENDPOINT: concentration at 504 h (ng/mL)
Numeric answer only, unit ng/mL assumed.

Query: Quote concentration at 504 h reported for Cc1cnc(NC(=O)C2=C(O)c3ccccc3S(=O)(=O)N2C)s1 [meloxicam] please.
Reply: 33.1
